Where these numbers come from: the supplement of paper PMC6757056

B1: library; a variant is named by its letters at N, in order (parent)
chain: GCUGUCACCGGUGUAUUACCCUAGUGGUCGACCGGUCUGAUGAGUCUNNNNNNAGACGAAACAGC

- Variants of: B1
- protocol-summary: normalized RNA/DNA level without ligand (relative to sTRSVctl = 100) (log10 (% of sTRSVctl)); ligand: hypoxanthine (xanthine aptamer); higher = less ribozyme self-cleavage, higher mRNA level
- conditions: HEK293T, reporter: mCherry (pCS4076), ligand present: no
readout-kind: normalized RNA/DNA level without ligand (log10)

- mutations: "CCGGUU"
  measured-value: 1.91
- mutations: "CAGGGC"
  measured-value: 1.84
- mutations: "UCUCGC"
  measured-value: 1.76
- mutations: "GACCAG"
  measured-value: 1.55
- mutations: "ACAUAA"
  measured-value: 1.79
- mutations: "CAAUGC"
  measured-value: 1.89
- mutations: "ACGUGC"
  measured-value: 1.51
- mutations: "GCGAGU"
  measured-value: 1.23
- mutations: "AAUCCG"
  measured-value: 1.42
- mutations: "ACUUUU"
  measured-value: 1.87
- mutations: "UGUGGU"
  measured-value: 1.68
- mutations: "UUGGAU"
  measured-value: 1.85
- mutations: "CCGGCU"
  measured-value: 1.99
- mutations: "AAAGUU"
  measured-value: 1.82
- mutations: "GUUUUC"
  measured-value: 1.95
- mutations: "ACAGAU"
  measured-value: 1.64
- mutations: "CCCAAC"
  measured-value: 1.87
- mutations: "AUCAGG"
  measured-value: 1.48
- mutations: "AGCCGU"
  measured-value: 1.69
- mutations: "GAACUC"
  measured-value: 1.9
- mutations: "AAGAAC"
  measured-value: 1.74
- mutations: "AUCACU"
  measured-value: 1.88
- mutations: "ACAUUC"
  measured-value: 1.92
- mutations: "CGAGAA"
  measured-value: 1.58
- mutations: "GCCCGU"
  measured-value: 1.83
- mutations: "UAUACG"
  measured-value: 1.69
- mutations: "GUCGGA"
  measured-value: 1.79
- mutations: "CCAUUC"
  measured-value: 1.9
- mutations: "UGCCGG"
  measured-value: 1.71
- mutations: "UUAUUG"
  measured-value: 1.71
- mutations: "GAAGUG"
  measured-value: 1.28
- mutations: "CGCAUG"
  measured-value: 1.81
- mutations: "CCAGUG"
  measured-value: 1.69
- mutations: "UUACUG"
  measured-value: 1.67
- mutations: "CGUUUU"
  measured-value: 1.83
- mutations: "AACGAU"
  measured-value: 1.65
- mutations: "GUUAAG"
  measured-value: 1.48
- mutations: "ACAGCU"
  measured-value: 1.87
- mutations: "CGUACG"
  measured-value: 1.87
- mutations: "AACGUG"
  measured-value: 1.3
- mutations: "CCCGGU"
  measured-value: 1.92
- mutations: "UCGCAU"
  measured-value: 1.68
- mutations: "AUUUCC"
  measured-value: 1.88
- mutations: "UUACGG"
  measured-value: 1.85
- mutations: "CAUCAA"
  measured-value: 1.81
- mutations: "AUGUAG"
  measured-value: 1.27
- mutations: "UCGUGA"
  measured-value: 1.27
- mutations: "GAGAAA"
  measured-value: 1.6
- mutations: "UUCUAG"
  measured-value: 1.67
- mutations: "CGUUCU"
  measured-value: 1.84
- mutations: "AGUCUU"
  measured-value: 1.89
- mutations: "AAAGAA"
  measured-value: 1.71
- mutations: "CUUUUU"
  measured-value: 1.81
- mutations: "GAAAGG"
  measured-value: 1.2
- mutations: "UCUAUC"
  measured-value: 2
- mutations: "ACACCU"
  measured-value: 1.84
- mutations: "GUAUAG"
  measured-value: 1.44
- mutations: "CGUUGA"
  measured-value: 1.83
- mutations: "GGUCCC"
  measured-value: 1.9
- mutations: "CGUCGG"
  measured-value: 1.57
- mutations: "CCAUAC"
  measured-value: 1.84
- mutations: "GUAAGC"
  measured-value: 1.53
- mutations: "GUCAAA"
  measured-value: 1.73
- mutations: "AAAAGA"
  measured-value: 1.67
- mutations: "GCAGCG"
  measured-value: 1.62
- mutations: "ACCCGG"
  measured-value: 1.48
- mutations: "UCAUUA"
  measured-value: 1.88
- mutations: "UACCCC"
  measured-value: 1.9
- mutations: "GUGGUU"
  measured-value: 1.88
- mutations: "GGUAUC"
  measured-value: 1.82
- mutations: "UGAGGC"
  measured-value: 1.9
- mutations: "GCAACC"
  measured-value: 1.82
- mutations: "GUUUAG"
  measured-value: 1.46
- mutations: "AUAGUG"
  measured-value: 1.36
- mutations: "UGCCUC"
  measured-value: 2.01
- mutations: "GGCCUC"
  measured-value: 1.96
- mutations: "GGACAA"
  measured-value: 1.76
- mutations: "AGAGCG"
  measured-value: 1.4
- mutations: "GUACAA"
  measured-value: 1.76
- mutations: "GCUUUG"
  measured-value: 1.56
- mutations: "AAUUCG"
  measured-value: 1.52
- mutations: "AUUCUA"
  measured-value: 1.84
- mutations: "UGGAAU"
  measured-value: 1.66
- mutations: "GUAGGU"
  measured-value: 1.79
- mutations: "CGAAGA"
  measured-value: 1.72
- mutations: "AUAGGC"
  measured-value: 1.78
- mutations: "AUGGCA"
  measured-value: 1.79
- mutations: "CAAAAG"
  measured-value: 1.59
- mutations: "UAUGAA"
  measured-value: 1.73
- mutations: "UCUGAU"
  measured-value: 1.77
- mutations: "GUGACG"
  measured-value: 1.37
